Experimental system: DPP-4 (Homo sapiens, UniProt P27487)
Construct: purchased Sigma-Aldrich Co., St. Louis, MO, USA
Sequence (P27487 whole entry, species assumed): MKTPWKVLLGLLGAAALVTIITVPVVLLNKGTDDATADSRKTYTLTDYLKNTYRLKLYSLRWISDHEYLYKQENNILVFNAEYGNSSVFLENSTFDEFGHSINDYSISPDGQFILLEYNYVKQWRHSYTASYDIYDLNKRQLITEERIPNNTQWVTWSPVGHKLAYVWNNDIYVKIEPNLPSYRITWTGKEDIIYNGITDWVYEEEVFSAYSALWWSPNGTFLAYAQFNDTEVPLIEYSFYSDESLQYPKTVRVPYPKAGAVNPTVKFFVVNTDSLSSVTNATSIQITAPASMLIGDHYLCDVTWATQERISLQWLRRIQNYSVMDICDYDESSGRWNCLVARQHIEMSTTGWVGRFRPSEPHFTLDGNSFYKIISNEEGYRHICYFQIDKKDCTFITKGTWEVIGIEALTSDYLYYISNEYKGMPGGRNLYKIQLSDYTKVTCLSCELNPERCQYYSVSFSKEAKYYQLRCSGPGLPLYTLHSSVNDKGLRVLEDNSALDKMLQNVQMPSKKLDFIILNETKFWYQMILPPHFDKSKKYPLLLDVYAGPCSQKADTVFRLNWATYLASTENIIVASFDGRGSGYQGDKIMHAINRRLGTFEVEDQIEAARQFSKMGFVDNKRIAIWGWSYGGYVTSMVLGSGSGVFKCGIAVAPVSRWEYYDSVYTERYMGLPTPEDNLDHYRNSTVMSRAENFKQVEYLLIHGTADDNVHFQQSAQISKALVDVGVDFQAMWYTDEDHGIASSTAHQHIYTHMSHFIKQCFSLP
Procedure text: DPP-4 inhibitory activity (Gly-Pro-p-nitroanilide substrate)
Assay type: biochemical
Experimental conditions: 25 μl sample + 25 μl Gly-Pro-p-nitroanilide (3.2 mM), preincubated 37 °C 10 min; 50 μl DPP-4 (0.02 U/ml); 60 min; 100 mM tris buffer (pH 7.6); absorbance at 405 nm
No end group written: not given here.
Parameter: IC50 (µM)

(1) GPVRGPF [GPVRGPF]
(2) HPHPHL [HPHPHL]
Given the listed items, does 1 or 2 have the lesser reported IC50? Indicate your choice by writing its label.
1
